Reference source: patent US20250011363A1

// values below are reported Binding affinity (RU)
STUDY_SYSTEM: acetylcholine receptor
TEST_PROTOCOL: SPR, AchR immobilised on CM5 chip, peptide 10 uM
Express the result in RU but write the number alone.

Known results for binders:
binder="KRCPDR [6mer-1-982]" property="Binding affinity (RU)" result=35
binder="REPHRK [6mer-2-616]" property="Binding affinity (RU)" result=26
binder="RCNHKK [6mer-2-608]" property="Binding affinity (RU)" result=32

Next up:
q: I'd like to know its Binding affinity (RU). The binder in question is RYPDRK [6mer-2-648]
a: 23
